# methodDescription: Plasma pharmacokinetics over 2 h after oral ibogaine in wild-type, Oatp1a/1b-/-, Oatp1a/1b-/-;1B1tg and Oatp1a/1b-/-;1B3tg mice
# Assay type: in vivo
# conditionNotes: female, Oatp1a/1b-/-;1B1tg, mouse, plasma, po, 10 mg/kg
measuredAttribute: Cmax

CCC1CC2CC3c4[nH]c5ccc(OC6OC(C(=O)O)C(O)C(O)C6O)cc5c4CCN(C2)C13 (centres unmarked) [Noribogaine glucuronide, noribogaine glucuronide]
199 ng/mL

Okay, now this compound:
Output measured Cmax for this item: CCC1CC2CC3c4[nH]c5ccc(O)cc5c4CCN(C2)C13 (centres unmarked) [Noribogaine, 12-hydroxyibogamine] 417 ng/mL

Where do these numbers come from? They come from paper PMC8931498.
